test system: SNB-19 CNS; assay: NCI tumour cell line growth inhibition, 48 h
*1 amine or outer side, *2 acyl side, *3 side chain or, on linkers, in order; H or OH if unused. Where a SMILES comes first, the peptide text is derived from it. Bridges are numbered along the chain shown (N, C = ends). Roman numbers before positions name the chains, in order. [ ]: non-standard residue; d: D form. Actinocin(9to1) = Cc1c2oc3c(C)ccc(C(=O)[*:1])c3nc-2c(C(=O)[*:2])c(N)c1=O; Hyp = O=C(O)[CH]1C[CH](O)CN1; NMeV = CN[CH](C(=O)O)C(C)C; Sar = CNCC(=O)O
metric: TGI

INSERT INTO results (compound, metric, result) VALUES
  ('CCOC1NC(=O)Oc2cc3ccccc3cc21 (stereo unspecified)', 'TGI', '> 100 µM'),
  ('O[C@@H]1CCC[C@@H]2NC[C@@H](c3ccc4c(c3)OCO4)[C@H]12', 'TGI', '> 100 µM'),
  ('COc1cc(NS(C)(=O)=O)ccc1NCc1c2ccccc2nc2ccccc12', 'TGI', '> 100 µM'),
  ('O=[N+]([O-])c1cc(F)ccc1S(=O)(=O)c1ccccc1', 'TGI', '> 10 µM'),
  ('CNC(=O)SCC(NC(=O)CCC(N)C(=O)O)C(=O)NCC(=O)O (stereo unspecified)', 'TGI', '> 100 µM'),
  ('COc1ccc(NC(C(N)=O)c2cc3cc(Br)ccc3nc2Cl)cc1 (stereo unspecified)', 'TGI', '> 100 µM'),
  ('Cc1c2oc3c(C)ccc(C(=O)NC4C(=O)NC(C(C)C)C(=O)N5CC(O)CC5C(=O)N(C)CC(=O)N(C)C(C(C)C)C(=O)OC4C)c3nc-2c(C(=O)NC2C(=O)NC(C(C)C)C(=O)N3CC(O)CC3C(=O)N(C)CC(=O)N(C)C(C(C)C)C(=O)OC2C)c(N)c1=O (stereo unspecified) (I: TV[Hyp][Sar][NMeV] / II: TV[Hyp][Sar][NMeV]; ester I:1-I:C, II:1-II:C; linker I:N-II:N via Actinocin(9to1); configuration not given here)', 'TGI', '> 1 µM'),
  ('COC(=O)[C@@H](C)[C@H]1CC[C@@](C)(CCC2=C(C)CC3C=C(C)CCC3C2(C)C)OO1 (stereo partly specified)', 'TGI', '3.16 µM'),
  ('Cc1ccc(NC(=O)/C(Cc2cc(=O)oc3cc(O)ccc23)=N\NC(C)(C)C)cc1C', 'TGI', '> 100 µM'),
  ('COc1ccc2c(c1OC)C(C(Cl)(Cl)Cl)N1CCc3cc4c(cc3C1=C2)OCO4 (stereo unspecified)', 'TGI', '> 100 µM');

API: the following record is the query input.
Record summary for Cc1nc2ccc(F)cc2c(Cl)c1CCCl : reported TGI = > 100 µM

----------
test system: MOLT-4 leukemia; assay: NCI tumour cell line growth inhibition, 48 h
TGI values for the compounds below.

Please review the following examples before continuing.
INSERT INTO results (compound, metric, result) VALUES
  ('Cc1nc2ccc(F)cc2c(Cl)c1CCCl', 'TGI', '98.6 µM'),
  ('C=CCOC(=O)N1c2ccc(O)cc2[C@@]23O[C@@]24[C@@H]1C#C/C=C\C#C[C@]3(O)C(OC)(OC)C[C@@H]4C', 'TGI', '> 100 µM'),
  ('COC(=O)C1CCC(=O)N1C(c1cc(OC)c(OC)c(OC)c1)c1cccc2ccccc12 (stereo not given)', 'TGI', '> 100 µM');

Tested on MOLT-4 leukemia, the item O=C(Nc1ccccc1Cl)c1ccc([N+](=O)[O-])cc1 showed TGI equal to > 100 µM

Tested on MOLT-4 leukemia, the item O=C(Nc1ccccc1-c1nn(CN2CCNCC2)c(=S)n(CN2CCNCC2)c1=O)C(F)(F)F showed TGI equal to > 100 µM
